protocol text: Dynamic solubility experiment at 37°C (water, SGF, FaSSIF, FeSSIF)
condition context: pH value of the filtrate, SGF, 1 hour
Where a name gives a salt, the structure may show the parent alone.
readout kind: pH

# molecule, value observed
measured = [
    ("Cc1cc(OCCN2C[C@H]3COC[C@H]3C2)ccc1-c1ccc(CC(=O)NCc2ccccc2)nc1 [Crystal form A of fumarate salt]", 3.4),
    ("Cc1cc(OCCN2C[C@H]3COC[C@H]3C2)ccc1-c1ccc(CC(=O)NCc2ccccc2)nc1 [Crystal form A of phosphate salt]", 3.4),
    ("Cc1cc(OCCN2C[C@H]3COC[C@H]3C2)ccc1-c1ccc(CC(=O)NCc2ccccc2)nc1 [Crystal form B of oxalate salt]", 3.1),
]

(1) Cc1cc(OCCN2C[C@H]3COC[C@H]3C2)ccc1-c1ccc(CC(=O)NCc2ccccc2)nc1 [Crystal form A of benzenesulfonate salt]
(2) Cc1cc(OCCN2C[C@H]3COC[C@H]3C2)ccc1-c1ccc(CC(=O)NCc2ccccc2)nc1 [Free form crystal form A]
## Task Which item exceeds the other in pH, 1 or 2 ? Lab note: record the label of whichever item you select.
## Result 2
(2: 5.7, 1: 3.4)
